Can you tell me Activity (umolequiv/umol) for the items I'm about to list?
assay: Antioxidant activity assessed as trolox equivalent of AAPH radical scavenging activity at 1 to 25 uM preincubated for 15 mins followed by AAPH addition measured every min for 80 mins by ORAC-FL assay; assay type: functional
API doc: respond with a numeric literal and nothing else, no unit.

Task item: Specify measured Activity (umolequiv/umol) for COc1cc2c(cc1OC)C(=O)/C(=C/c1ccc(N3CCN(Cc4ccccc4)CC3)cc1)C2 .
Reply: 1.69

Task item: Consider the molecule COc1cc2c(cc1OC)C(=O)/C(=C/c1ccc(N3CCN(c4ccc(C)cc4)CC3)cc1)C2 . State its measured Activity (umolequiv/umol).
Reply: 1.3

Task item: // fetch Activity (umolequiv/umol) given entry COc1cc2c(cc1OC)C(=O)/C(=C/c1ccc(N3CCN(c4ccccc4)CC3)cc1)C2
Reply: 0.64

Task item: Return value of Activity (umolequiv/umol) for input COc1cc2c(cc1OC)C(=O)/C(=C/c1ccc(N3CCN(Cc4ccc5c(c4)OCO5)CC3)cc1)C2 , no commentary.
Reply: 3.35

Task item: Identify measured Activity (umolequiv/umol) associated with COc1cc2c(cc1OC)C(=O)/C(=C/c1ccc(N3CCN(c4ccc(F)cc4)CC3)cc1)C2
Reply: 1.93

Task item: Name the recorded Activity (umolequiv/umol) of the item COc1cc2c(cc1OC)C(=O)/C(=C/c1ccc(N3CCN(c4ccccn4)CC3)cc1)C2 in your answer.
Reply: 2.08

Task item: Answer with the recorded Activity (umolequiv/umol) of COc1cc2c(cc1OC)C(=O)/C(=C/c1ccc(N3CCN(C(c4ccc(F)cc4)c4ccc(F)cc4)CC3)cc1)C2 only.
Reply: 2.98

Task item: Specify measured Activity (umolequiv/umol) for COc1cc2c(cc1OC)C(=O)/C(=C/c1ccc(N3CCN(C(c4ccccc4)c4ccccc4)CC3)cc1)C2 .
Reply: 1.41

Task item: Supply recorded Activity (umolequiv/umol) for COc1ccc(N2CCN(c3ccc(/C=C4\Cc5cc(OC)c(OC)cc5C4=O)cc3)CC2)cc1 here.
Reply: 3.39

* * *

assay: Selectivity index, ratio of IC50 for equine serum BuChE to IC50 for Electric eel AChE
Is Ratio IC50 at least 10? Then t. If not, f.

Task item: Item COc1cc2c(cc1OC)C(=O)/C(=C/c1ccc(N3CCN(c4ccccc4)CC3)cc1)C2 with Ratio IC50 of 10 or above?
Reply: f

Task item: Has COc1cc2c(cc1OC)C(=O)/C(=C/c1ccc(N3CCN(c4ccc(C(F)(F)F)cc4)CC3)cc1)C2 a recorded Ratio IC50 greater than or equal to 10?
Reply: f

Task item: Decide: Ratio IC50 of COc1cc2c(cc1OC)C(=O)/C(=C/c1ccc(N3CCN(c4ccc(C)cc4)CC3)cc1)C2 >= 10?
Reply: f

Task item: Please indicate if the recorded Ratio IC50 for COc1cc2c(cc1OC)C(=O)/C(=C/c1ccc(N3CCN(C(c4ccccc4)c4ccccc4)CC3)cc1)C2 meets or exceeds 10.
Reply: t

Task item: Check this molecule for Ratio IC50 at or above 10: COc1cc2c(cc1OC)C(=O)/C(=C/c1ccc(N3CCN(c4ccc(F)cc4)CC3)cc1)C2
Reply: f

* * *

target: Amyloid-beta precursor protein (Homo sapiens, UniProt P05067); test: Inhibition of HFIP-pretreated amyloid beta (1 to 42) (unknown origin) self-induced aggregation at 25 uM after 48 hrs by thioflavin-T fluorescence assay relative to control
Sequence (P05067 whole entry): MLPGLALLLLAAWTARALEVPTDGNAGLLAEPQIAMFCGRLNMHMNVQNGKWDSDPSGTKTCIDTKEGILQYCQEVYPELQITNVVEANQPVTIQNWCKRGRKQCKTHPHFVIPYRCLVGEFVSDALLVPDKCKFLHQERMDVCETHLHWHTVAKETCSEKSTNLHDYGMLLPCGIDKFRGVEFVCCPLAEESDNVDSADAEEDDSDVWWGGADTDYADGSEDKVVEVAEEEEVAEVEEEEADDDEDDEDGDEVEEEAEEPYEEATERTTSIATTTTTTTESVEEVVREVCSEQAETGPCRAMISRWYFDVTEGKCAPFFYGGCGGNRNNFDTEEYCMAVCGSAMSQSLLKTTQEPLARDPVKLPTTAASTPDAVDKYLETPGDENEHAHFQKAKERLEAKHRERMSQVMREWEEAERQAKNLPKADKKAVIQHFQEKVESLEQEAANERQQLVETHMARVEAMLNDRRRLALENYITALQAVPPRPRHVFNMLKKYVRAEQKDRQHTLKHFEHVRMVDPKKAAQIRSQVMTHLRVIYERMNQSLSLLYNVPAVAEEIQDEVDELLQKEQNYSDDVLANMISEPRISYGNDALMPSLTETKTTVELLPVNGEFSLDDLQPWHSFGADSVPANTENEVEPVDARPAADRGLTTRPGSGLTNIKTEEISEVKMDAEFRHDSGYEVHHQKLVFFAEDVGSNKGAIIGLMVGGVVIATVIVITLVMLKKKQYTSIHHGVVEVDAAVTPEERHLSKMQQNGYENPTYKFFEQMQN
Measured Metric: inhibition (%)
The answer is to be given in %; state only the numeric part.

Task item: Identify measured inhibition corresponding to COc1ccc(N2CCN(c3ccc(/C=C4\Cc5cc(OC)c(OC)cc5C4=O)cc3)CC2)cc1
Reply: 70.5

Task item: Return reported inhibition. Input compound: COc1cc2c(cc1OC)C(=O)/C(=C/c1ccc(N3CCN(C(c4ccc(F)cc4)c4ccc(F)cc4)CC3)cc1)C2
Reply: 83.7

Task item: Fill in reported inhibition for this entry: COc1cc2c(cc1OC)C(=O)/C(=C/c1ccc(N3CCN(C(=O)c4ccccc4)CC3)cc1)C2
Reply: 61.4

Task item: Name the recorded inhibition of the compound listed here: COc1cc2c(cc1OC)C(=O)/C(=C/c1ccc(N3CCN(c4ccc(C)cc4C)CC3)cc1)C2
Reply: 65.7

Task item: Respond only with inhibition recorded for COc1cc2c(cc1OC)C(=O)/C(=C/c1ccc(N3CCN(c4ccccn4)CC3)cc1)C2
Reply: 73.3

Task item: Give inhibition for COc1cc2c(cc1OC)C(=O)/C(=C/c1ccc(N3CCN(c4ccc(F)cc4)CC3)cc1)C2
Reply: 66.8

Task item: Look up inhibition of COc1cc2c(cc1OC)C(=O)/C(=C/c1ccc(N3CCN(C(c4ccccc4)c4ccccc4)CC3)cc1)C2 and report it.
Reply: 78.2

Task item: Supply reported inhibition belonging to this compound: COc1cc2c(cc1OC)C(=O)/C(=C/c1ccc(N3CCN(c4ccc(C)cc4)CC3)cc1)C2
Reply: 63.5

Task item: Please give measured inhibition of the following entry: COc1cc2c(cc1OC)C(=O)/C(=C/c1ccc(N3CCN(c4ccccc4)CC3)cc1)C2
Reply: 51.1

* * *

Can you tell me IC50 for the items I'm about to list?
Return type: number; implicit unit µM.

Task item: Give IC50 for this entry on Acetylcholinesterase (Electrophorus electricus): COc1cc2c(cc1OC)C(=O)/C(=C/c1ccc(N3CCN(Cc4ccccc4)CC3)cc1)C2
Sequence (O42275 whole entry): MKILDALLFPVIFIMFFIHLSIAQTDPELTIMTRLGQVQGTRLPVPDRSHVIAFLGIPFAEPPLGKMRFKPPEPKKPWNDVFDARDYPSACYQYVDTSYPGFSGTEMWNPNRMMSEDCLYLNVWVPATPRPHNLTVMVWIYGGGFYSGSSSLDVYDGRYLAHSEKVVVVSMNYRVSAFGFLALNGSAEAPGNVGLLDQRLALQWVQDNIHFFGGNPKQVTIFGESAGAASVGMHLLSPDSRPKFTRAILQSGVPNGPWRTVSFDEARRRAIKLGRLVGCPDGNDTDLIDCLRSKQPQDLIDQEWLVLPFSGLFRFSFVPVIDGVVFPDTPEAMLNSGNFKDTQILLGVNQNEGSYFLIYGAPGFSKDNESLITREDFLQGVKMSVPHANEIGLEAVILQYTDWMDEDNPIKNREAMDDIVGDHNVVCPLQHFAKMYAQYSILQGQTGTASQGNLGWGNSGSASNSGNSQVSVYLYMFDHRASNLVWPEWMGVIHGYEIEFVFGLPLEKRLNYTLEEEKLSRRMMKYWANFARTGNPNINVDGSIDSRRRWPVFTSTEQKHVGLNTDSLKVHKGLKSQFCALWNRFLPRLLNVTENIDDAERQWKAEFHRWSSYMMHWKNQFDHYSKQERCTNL
Reply: 2.62

Task item: Name the recorded IC50 of COc1cc2c(cc1OC)C(=O)/C(=C/c1ccc(N3CCN(C(=O)c4ccccc4)CC3)cc1)C2 , assay system Acetylcholinesterase (Electrophorus electricus).
Reply: 1.7

Task item: // fetch IC50; item: COc1cc2c(cc1OC)C(=O)/C(=C/c1ccc(N3CCN(c4ccc(Cl)cc4)CC3)cc1)C2 ; system: Acetylcholinesterase (Electrophorus electricus)
Reply: 0.291

Task item: Retrieve IC50 on Acetylcholinesterase (Electrophorus electricus); query COc1cc2c(cc1OC)C(=O)/C(=C/c1ccc(N3CCN(C(=O)c4ccoc4)CC3)cc1)C2
Reply: 0.034

Task item: Retrieve IC50 on Acetylcholinesterase (Electrophorus electricus); query COc1cc2c(cc1OC)C(=O)/C(=C/c1ccc(N3CCN(c4ccccn4)CC3)cc1)C2
Reply: 0.105

Task item: Give Acetylcholinesterase (Electrophorus electricus) IC50 for the following molecule: COc1cc2c(cc1OC)C(=O)/C(=C/c1ccc(N3CCN(c4ccccc4)CC3)cc1)C2
Reply: 1.31

Task item: Write IC50 of COc1cc2c(cc1OC)C(=O)/C(=C/c1ccc(N3CCN(c4ccc(C)cc4)CC3)cc1)C2 ; system used: Acetylcholinesterase (Electrophorus electricus)
Reply: 0.194

Task item: System Acetylcholinesterase (Electrophorus electricus). Read-out IC50. Item COc1cc2c(cc1OC)C(=O)/C(=C/c1ccc(N3CCN(C(c4ccc(F)cc4)c4ccc(F)cc4)CC3)cc1)C2 . Report value.
Reply: 0.045

Task item: Report IC50 from Acetylcholinesterase (Electrophorus electricus) testing of COc1cc2c(cc1OC)C(=O)/C(=C/c1ccc(N3CCN(c4ccc(C)cc4C)CC3)cc1)C2
Reply: 0.112

* * *

target: Amyloid-beta precursor protein (Homo sapiens, UniProt P05067); assay: Inhibition of HFIP-pretreated amyloid beta (1 to 42) (unknown origin) self-induced aggregation after 48 hrs by thioflavin-T fluorescence assay
Measured Metric: pIC50
Interpret pIC50 as the negative base-10 log of the concentration measured in mol/L.

Task item: Give pIC50 for the following molecule: COc1cc2c(cc1OC)C(=O)/C(=C/c1ccc(N3CCN(C(=O)c4ccoc4)CC3)cc1)C2
Reply: 4.96

Task item: Supply recorded pIC50 for COc1cc2c(cc1OC)C(=O)/C(=C/c1ccc(N3CCN(C(c4ccccc4)c4ccccc4)CC3)cc1)C2 here.
Reply: 4.91

Task item: Given COc1cc2c(cc1OC)C(=O)/C(=C/c1ccc(N3CCN(c4ncccn4)CC3)cc1)C2 , respond with its pIC50.
Reply: 5.00

Task item: State its pIC50: COc1cc2c(cc1OC)C(=O)/C(=C/c1ccc(N3CCN(C(c4ccc(F)cc4)c4ccc(F)cc4)CC3)cc1)C2
Reply: 5.13

* * *

molecular target: UniProt:P81908; assay: Inhibition of equine serum BuChE using butyrylthiocholine iodide as substrate preincubated for 5 mins followed by substrate addition measured after 2 mins by Ellman's method
Sequence (P81908 whole entry): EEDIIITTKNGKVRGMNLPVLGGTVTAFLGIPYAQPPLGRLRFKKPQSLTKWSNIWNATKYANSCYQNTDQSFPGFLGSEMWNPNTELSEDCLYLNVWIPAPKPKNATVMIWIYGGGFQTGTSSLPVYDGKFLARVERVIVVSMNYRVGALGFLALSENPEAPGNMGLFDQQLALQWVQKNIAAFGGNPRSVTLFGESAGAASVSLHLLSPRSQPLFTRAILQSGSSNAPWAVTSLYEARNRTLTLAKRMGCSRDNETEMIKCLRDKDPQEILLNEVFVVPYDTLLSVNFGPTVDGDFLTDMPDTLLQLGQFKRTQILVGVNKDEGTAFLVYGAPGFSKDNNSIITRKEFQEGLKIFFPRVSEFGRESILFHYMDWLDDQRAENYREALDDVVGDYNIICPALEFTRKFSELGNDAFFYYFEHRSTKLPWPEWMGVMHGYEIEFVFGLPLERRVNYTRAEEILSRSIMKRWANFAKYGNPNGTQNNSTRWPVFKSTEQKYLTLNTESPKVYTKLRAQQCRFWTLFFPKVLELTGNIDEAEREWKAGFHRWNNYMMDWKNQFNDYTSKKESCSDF
Exercise: state measured pIC50 for each of the molecules provided.
Schema: pIC50 number; meaning minus log10 of the concentration expressed in molar units.

Task item: Output measured pIC50 for this item: COc1cc2c(cc1OC)C(=O)/C(=C/c1ccc(N3CCN(C(=O)c4ccccc4)CC3)cc1)C2
Reply: 6.44

Task item: Specify pIC50 for COc1cc2c(cc1OC)C(=O)/C(=C/c1ccc(N3CCN(c4ccc(F)cc4)CC3)cc1)C2 and stop.
Reply: 5.49

Task item: Name the recorded pIC50 of the item COc1cc2c(cc1OC)C(=O)/C(=C/c1ccc(N3CCN(Cc4ccc5c(c4)OCO5)CC3)cc1)C2 in your answer.
Reply: 4.91

Task item: Determine from records and report pIC50 for COc1cc2c(cc1OC)C(=O)/C(=C/c1ccc(N3CCN(c4ccc(Cl)cc4)CC3)cc1)C2
Reply: 5.65

Task item: Please give the documented pIC50 of COc1cc2c(cc1OC)C(=O)/C(=C/c1ccc(N3CCN(c4ccc(C)cc4C)CC3)cc1)C2
Reply: 5.29

Task item: Indicate the recorded pIC50 value for this molecule: COc1ccc(N2CCN(c3ccc(/C=C4\Cc5cc(OC)c(OC)cc5C4=O)cc3)CC2)cc1
Reply: 6.22

Task item: Provide one value: measured pIC50 of COc1cc2c(cc1OC)C(=O)/C(=C/c1ccc(N3CCN(C(c4ccccc4)c4ccccc4)CC3)cc1)C2
Reply: 5.31

Task item: Look up pIC50 of COc1cc2c(cc1OC)C(=O)/C(=C/c1ccc(N3CCN(c4ccccn4)CC3)cc1)C2 and report it.
Reply: 5.76

Task item: Let me know recorded pIC50 for COc1cc2c(cc1OC)C(=O)/C(=C/c1ccc(N3CCN(c4ncccn4)CC3)cc1)C2 , thanks.
Reply: 5.61

Task item: Consider the molecule COc1cc2c(cc1OC)C(=O)/C(=C/c1ccc(N3CCN(c4ccc(C)cc4)CC3)cc1)C2 . State its measured pIC50.
Reply: 5.73

Task item: Tell me measured pIC50 for COc1cc2c(cc1OC)C(=O)/C(=C/c1ccc(N3CCN(C(=O)c4ccoc4)CC3)cc1)C2 please.
Reply: 5.71

Task item: For the molecule COc1cc2c(cc1OC)C(=O)/C(=C/c1ccc(N3CCN(Cc4ccccc4)CC3)cc1)C2 , report pIC50.
Reply: 7.06

Task item: Report pIC50, nothing else, for this molecule: COc1cc2c(cc1OC)C(=O)/C(=C/c1ccc(N3CCN(c4ccc(C(F)(F)F)cc4)CC3)cc1)C2
Reply: 6.67

Task item: Give the reported pIC50 for this molecule. COc1cc2c(cc1OC)C(=O)/C(=C/c1ccc(N3CCN(C(c4ccc(F)cc4)c4ccc(F)cc4)CC3)cc1)C2
Reply: 5.52

Task item: Entry COc1cc2c(cc1OC)C(=O)/C(=C/c1ccc(N3CCN(c4ccccc4)CC3)cc1)C2 needs its pIC50 filled in; supply it.
Reply: 5.22
